test system: HCC-827; assay: relative viability (nuclei count vs DMSO), 5 days (fraction); higher = more cells survive; conditions: first compound 0.03162 µM
Threshold 0.6: relative viability strictly smaller gives True, otherwise False.

molecule	assayed_target	answer_label
O=c1cc(N2CCOCC2)oc2c(-c3cccc4c3sc3ccccc34)cccc12 + Nc1nc2[nH]cc(CCc3ccc(C(=O)N[C@@H](CCC(=O)O)C(=O)O)cc3)c2c(=O)[nH]1 [Pemetrexed] (partner 0.2 µM)	HCC-827	True
CCN(CC)CCCCNc1ncc2cc(-c3cc(OC)cc(OC)c3)c(NC(=O)NC(C)(C)C)nc2n1 + Cc1nc(NC(=O)N2CCC[C@H]2C(N)=O)sc1-c1ccnc(C(C)(C)C(F)(F)F)c1 [Alpelisib] (partner 2 µM)	HCC-827	False
O=c1cc(N2CCOCC2)oc2c(-c3cccc4c3sc3ccccc34)cccc12 + Cc1cc(Nc2cc(N3CCN(C)CC3)nc(Sc3ccc(NC(=O)C4CC4)cc3)n2)n[nH]1 [Tozasertib] (partner 0.1 µM)	HCC-827	True
O=c1cc(N2CCOCC2)oc2c(-c3cccc4c3sc3ccccc34)cccc12 + NC(=O)Nc1cc(-c2cccc(F)c2)sc1C(=O)N[C@H]1CCCNC1 [AZD7762] (partner 0.2 µM)	HCC-827	True
